# Assay Target: Intestinal-type alkaline phosphatase (Bos taurus, UniProt P19111)
# Sequence (P19111 whole entry): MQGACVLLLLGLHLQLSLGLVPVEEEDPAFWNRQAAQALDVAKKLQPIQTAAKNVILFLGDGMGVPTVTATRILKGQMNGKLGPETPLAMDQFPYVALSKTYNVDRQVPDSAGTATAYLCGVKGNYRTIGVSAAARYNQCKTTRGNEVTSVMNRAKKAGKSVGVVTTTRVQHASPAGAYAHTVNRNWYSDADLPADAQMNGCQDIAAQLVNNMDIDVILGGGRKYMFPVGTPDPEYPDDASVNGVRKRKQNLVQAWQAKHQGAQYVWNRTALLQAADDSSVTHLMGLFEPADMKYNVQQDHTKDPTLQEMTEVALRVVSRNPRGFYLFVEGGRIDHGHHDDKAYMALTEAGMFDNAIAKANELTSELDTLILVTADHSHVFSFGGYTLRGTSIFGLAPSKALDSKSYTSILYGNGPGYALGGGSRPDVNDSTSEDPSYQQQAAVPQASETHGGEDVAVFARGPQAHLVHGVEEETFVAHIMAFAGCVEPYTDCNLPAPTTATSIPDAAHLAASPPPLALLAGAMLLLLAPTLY
Value Type: Ki (nM)
Could you give me the number in nM? Just the number is fine.

Data request: Given the molecule O=P(O)(O)c1ccccc1S , what is its reported Ki?
Data returned: 210

* * *

# Assay Target: Metallo-beta-lactamase type 2 (Aeromonas hydrophila)
# Sequence (P26918 whole entry): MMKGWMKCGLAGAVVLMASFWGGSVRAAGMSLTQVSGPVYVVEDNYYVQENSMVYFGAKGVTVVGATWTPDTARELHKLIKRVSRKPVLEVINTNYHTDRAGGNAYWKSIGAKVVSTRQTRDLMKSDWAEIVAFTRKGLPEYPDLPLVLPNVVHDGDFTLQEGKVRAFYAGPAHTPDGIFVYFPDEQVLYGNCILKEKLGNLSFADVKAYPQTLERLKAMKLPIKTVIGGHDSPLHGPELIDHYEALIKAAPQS
# Assay Notes: Inhibition of Aeromonas hydrophila cphA
Overview of reported Ki across a group of molecules:
Number in µM, nothing else.

Some molecules with known Ki results, for comparison:
Data request: Reported Ki for O=P(O)(O)c1ccccc1CS : what is it?
Data returned: 0.5

Data request: Please answer likewise for CCC(S)P(=O)(O)O (centres undefined)
Data returned: 15

Data request: Entry to check: CC(C)OP(=O)(OC(C)C)c1ccccc1CS
Data returned: 2

Data request: Now try O=P(O)(O)C(S)c1ccc(Br)cc1 (centres undefined) .
Data returned: 13

Data request: Moving on to the next molecule: O=P(O)(O)C(S)c1ccccc1 (centres undefined)
Data returned: 11

---
Data request: What does the data say about its Ki? Entry: CC(C)OP(=O)(OC(C)C)C(S)c1ccccc1 (centres undefined)
Data returned: 0.25

Data request: One more molecule: O=P(O)(O)C(S)c1ccc(F)cc1 (centres undefined)
Data returned: 1

* * *

# Assay Target: Beta-lactamase L1 (Stenotrophomonas maltophilia)
# Assay Notes: Inhibition of Stenotrophomonas maltophilia beta lactamase L1 in presence of Zn+ chelator
Listed here: items and their measured log10 of Ki.
Scale type: logarithmic (base 10). Underlying Ki unit: µM.

Reference set, count: 3
Data request: Any idea what log10 of Ki came out for CC(C)OP(=O)(OC(C)C)C(S)c1ccccc1 (centres undefined) on Beta-lactamase L1 (Stenotrophomonas maltophilia)?
Data returned: 1.20

Data request: Now this one: O=P(O)(O)c1cc(F)ccc1S
Data returned: 0.60

Data request: Same thing, different compound: O=P(O)(O)C(S)c1ccccc1 (centres undefined)
Data returned: 1.51

Now let's try a different one.
Data request: Test system Beta-lactamase L1 (Stenotrophomonas maltophilia); read-out log10 of Ki; what value for O=P(O)(O)C(S)c1ccc(F)cc1 (centres undefined) ?
Data returned: 1.26

* * *

The entries below come with measured pKi values attached.
# Assay Target: Beta-lactamase L1 (Stenotrophomonas maltophilia, UniProt P52700)
# Sequence (P52700 whole entry): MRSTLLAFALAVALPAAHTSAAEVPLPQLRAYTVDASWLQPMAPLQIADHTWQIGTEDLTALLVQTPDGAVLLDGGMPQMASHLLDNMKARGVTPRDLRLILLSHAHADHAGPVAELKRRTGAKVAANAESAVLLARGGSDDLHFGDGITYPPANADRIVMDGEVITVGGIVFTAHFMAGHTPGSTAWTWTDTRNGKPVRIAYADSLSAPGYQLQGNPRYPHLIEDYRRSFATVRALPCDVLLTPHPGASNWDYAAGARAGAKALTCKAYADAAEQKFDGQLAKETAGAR
# Assay Notes: Inhibition of Stenotrophomonas maltophilia beta lactamase L1 in absence of Zn+ chelator
Reminder that pKi is minus the log10 of a molar concentration.

Data request: pKi for COc1ccccc1C(S)P(=O)(O)O (centres undefined) ?
Data returned: 5.05

Data request: Same again, this time with O=P(O)(O)C(S)c1ccc(Cl)cc1 (centres undefined)
Data returned: 5.42

Data request: Can you check CC(C)OP(=O)(OC(C)C)c1ccccc1CS next?
Data returned: 5.52

Data request: For O=P(O)(O)c1ccccc1CS then?
Data returned: 5.70

Data request: Entry to check: O=P(O)(O)C(S)c1ccc(Cl)cc1Cl (centres undefined)
Data returned: 6.40

Data request: Now this one: O=P(O)(O)C(S)c1ccc(Br)cc1 (centres undefined)
Data returned: 5.08

Next:
Data request: For the compound shown here, O=P(O)(O)c1cc(F)ccc1S , give the reported pKi.
Data returned: 4.40

Data request: Cool, now O=P(O)(O)c1ccccc1S
Data returned: 5.05

Data request: Further, for CC(C)OP(=O)(OC(C)C)C(S)c1ccccc1 (centres undefined) ?
Data returned: 4.70
